logP values, listed per item
# assay remarks: logP by shake flask-ultraviolet spectrophotometry
# Format: physicochemical
# test settings: n-caprylic alcohol-water (octanol/water); pH 6.8, n-caprylic alcohol-water, shake flask-UV; read-out: logP (octanol-water partition coefficient)
# Source text: Lipophilicity (ClogP) is used in rational drug design as a key factor related to the cell transmembrane transport or other biological processes. ClogP values can either be calculated experimentally or predicted by means of commercially available programs. In this work, ClogP values of the TOA-amino acid derivatives were predicted using Sybyl-X 2.0 (Tripos, Certara Inc., St. Louis, MO, USA). […]

[
  {
    "compound": "Cc1nc(C)c(COC(=O)[C@]23CCC(C)(C)CC2C2=CCC4[C@@]5(C)CC[C@H](O)C(C)(C)C5CC[C@@]4(C)[C@]2(C)CC3)nc1C (some centres unmarked)",
    "logP": 6.11
  }
]

Please find the next compound below.
q: // query logP value for entry Cc1nc(C)c(COC(=O)[C@]23CCC(C)(C)CC2C2=CCC4[C@@]5(C)CC[C@H](OC(=O)CN)C(C)(C)C5CC[C@@]4(C)[C@]2(C)CC3)nc1C (some centres unmarked)
a: 4.3

---

measure name: melting point

Please review the following examples before continuing.
[
  {
    "compound": "Cc1nc(C)c(COC(=O)[C@]23CCC(C)(C)CC2C2=CCC4[C@@]5(C)CC[C@H](OC(=O)[C@@H](N)C(C)C)C(C)(C)C5CC[C@@]4(C)[C@]2(C)CC3)nc1C (some centres unmarked)",
    "melting point": "89.5 to 91 °C"
  },
  {
    "compound": "CC[C@H](C)[C@H](N)C(=O)O[C@H]1CC[C@@]2(C)C(CC[C@]3(C)C2CC=C2C4CC(C)(C)CC[C@]4(C(=O)OCc4nc(C)c(C)nc4C)CC[C@]23C)C1(C)C (some centres unmarked)",
    "melting point": "89.8 to 90.7 °C"
  },
  {
    "compound": "CNCC(=O)O[C@H]1CC[C@@]2(C)C(CC[C@]3(C)C2CC=C2C4CC(C)(C)CC[C@]4(C(=O)OCc4nc(C)c(C)nc4C)CC[C@]23C)C1(C)C (some centres unmarked)",
    "melting point": "81.9 to 82.5 °C"
  },
  {
    "compound": "Cc1nc(C)c(COC(=O)[C@]23CCC(C)(C)CC2C2=CCC4[C@@]5(C)CC[C@H](OC(=O)[C@@H](N)Cc6ccccc6)C(C)(C)C5CC[C@@]4(C)[C@]2(C)CC3)nc1C (some centres unmarked)",
    "melting point": "82.4 to 83.8 °C"
  }
]

Please look at the following compound next.
q: Which melting point is reported for this compound? Cc1nc(C)c(COC(=O)[C@]23CCC(C)(C)CC2C2=CCC4[C@@]5(C)CC[C@H](OC(=O)[C@@H]6CCC(=O)N6)C(C)(C)C5CC[C@@]4(C)[C@]2(C)CC3)nc1C (some centres unmarked)
a: 124.6 to 125.8 °C

---

# Tested on: Hela
# assay remarks: MTT cytotoxicity assay, Hela
# Assay type: cell-based, human
# test settings: 72 h, cervical cancer cells
measure name: IC50 (µM)
State the answer as a number, implicitly in µM.

q: If you can, please state the reported IC50 value of [NH2][Pt]([NH2])([Cl])[Cl] [CDDP, cisplatin, reference compound] .
a: 9.84
